B1: TPPP (parent)
chain: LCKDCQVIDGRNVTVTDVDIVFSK

variants of: B1; assay: protein stability index of a GFP-peptide fusion (GPS, HEK-293T) (PSI 1-6); higher = more stable; conditions: c terminus: a fixed tail appended;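 note: lentivirally expressed fusions sorted by FACS into six bins by GFP to DsRed ratio, PSI derived from sequencing read proportions per bin multiplied by bin number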
Rule: Criterion met for protein stability index not less than 3, Criterion not met for anything less.

*Q* Dear colleague, could you confirm whether `I8R` has protein stability index at or above 3?
*A* Criterion met

*Q* Has `D19T` a recorded protein stability index greater than or equal to 3?
*A* Criterion not met

*Q* Record `D17L` ; criterion: protein stability index no lower than 3. Met?
*A* Criterion met

*Q* Has `V18G` a recorded protein stability index greater than or equal to 3?
*A* Criterion met

*Q* Please check the record `C5V` and state if its protein stability index is at or above 3.
*A* Criterion met

*Q* Is protein stability index for `S23R` at or above 3?
*A* Criterion not met

*Q* protein stability index >= 3 for `V21K` ?
*A* Criterion met

*Q* API: above_or_equal(metric=protein stability index, cutoff=3) for item `I20K`
*A* Criterion met

*Q* Could you tell me if the measured protein stability index of `D17Q` reaches 3 or more?
*A* Criterion not met

*Q* Given the entry `C2T` , answer whether its protein stability index meets or surpasses 3.
*A* Criterion met

*Q* Check the entry `V18A` : does protein stability index equal or exceed 3?
*A* Criterion not met

*Q* Threshold query (protein stability index >= 3) on `L1N`
*A* Criterion met

*Q* Hi, just wondering whether `C2Q` shows protein stability index of 3 or higher.
*A* Criterion met

*Q* Is reported protein stability index greater than or equal to 3 here: `I8Q`
*A* Criterion met

*Q* Test whether the variant `D19C` records protein stability index of 3 or higher.
*A* Criterion not met

*Q* Is the recorded value of protein stability index equal to or greater than 3 for this variant? `I20R`
*A* Criterion met

*Q* Has `L1T` a recorded protein stability index greater than or equal to 3?
*A* Criterion not met

*Q* Could you please find out whether `I8E` has protein stability index that meets 3 or exceeds it?
*A* Criterion met

*Q* Is protein stability index for `V13F` at or above 3?
*A* Criterion not met

*Q* For this variant, is measured protein stability index 3 or higher? `D17T`
*A* Criterion not met

*Q* Please indicate if the recorded protein stability index for `T16C` meets or exceeds 3.
*A* Criterion not met

*Q* Confirm if protein stability index reported for the variant `S23Q` is 3 or above.
*A* Criterion not met

*Q* Quick check: does `T16Q` have protein stability index greater than or equal to 3?
*A* Criterion not met

*Q* Record `G10F` ; criterion: protein stability index no lower than 3. Met?
*A* Criterion not met

*Q* Hi team, for `L1Y` , is the recorded protein stability index at or above 3?
*A* Criterion not met

*Q* State whether the measured protein stability index reaches 3, counting equality as reaching it, for `R11D`
*A* Criterion met

*Q* Hi, just wondering whether `T16I` shows protein stability index of 3 or higher.
*A* Criterion met

*Q* # check: protein stability index of `I20E` is greater than or equal to 3
*A* Criterion met

*Q* Reported protein stability index at or above 3? `C5H`
*A* Criterion met

*Q* Threshold query (protein stability index >= 3) on `V7I`
*A* Criterion not met

*Q* Hello, I need to know if `T14C` has measured protein stability index not below 3. Thanks!
*A* Criterion not met

*Q* Item `V7A` with protein stability index of 3 or above?
*A* Criterion not met

*Q* protein stability index >= 3 for `V21W` ?
*A* Criterion not met

*Q* hey, is protein stability index for this one >= 3? `I8Y`
*A* Criterion not met

*Q* Please tell me: is the variant `D4F` at or over 3 in terms of protein stability index?
*A* Criterion not met

*Q* Quick check: does `K3W` have protein stability index greater than or equal to 3?
*A* Criterion not met

*Q* Does `V13T` have a reported protein stability index of at least 3?
*A* Criterion not met

*Q* State whether the measured protein stability index reaches 3, counting equality as reaching it, for `D4G`
*A* Criterion not met

*Q* Given the entry `D19R` , answer whether its protein stability index meets or surpasses 3.
*A* Criterion not met

*Q* Hi, just wondering whether `V7W` shows protein stability index of 3 or higher.
*A* Criterion met

*Q* // inclusive: protein stability index at least 3? input: `L1K`
*A* Criterion met

*Q* Hello, I need to know if `K3S` has measured protein stability index not below 3. Thanks!
*A* Criterion not met

*Q* Decide: protein stability index of `C2H` >= 3?
*A* Criterion met
